What abundance fitness was measured for each of the following?
B1: Chromodomain-helicase-DNA-binding protein 5, residues 338 to 390; numbered along this chain, Q8TDI0 (parent)
chain: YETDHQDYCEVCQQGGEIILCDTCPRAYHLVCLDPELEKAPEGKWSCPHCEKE

# Variants of: B1
# assay-procedure: abundance fitness (aPCA) (normalised: wild type 0, dead -1); higher = more abundant; growth selection in yeast, the domain comes from the species named
# condition-parameters: Homo sapiens
Answer using only a numeral; do not append any unit.

Entry H29F : reported abundance fitness = ?
-1.07

Entry L20G : reported abundance fitness = ?
0.297

Entry L30Q : reported abundance fitness = ?
0.107

Entry P48F : reported abundance fitness = ?
0.124

Entry C24L : reported abundance fitness = ?
-0.682

Entry A27D : reported abundance fitness = ?
-0.258

Entry G43W : reported abundance fitness = ?
-0.223

Entry I18M : reported abundance fitness = ?
0.007

Entry K39W : reported abundance fitness = ?
-0.242

Entry P41T : reported abundance fitness = ?
-0.17

Entry L20N : reported abundance fitness = ?
0.091

Entry E53V : reported abundance fitness = ?
-0.29

Entry C21L : reported abundance fitness = ?
-0.872

Entry P35W : reported abundance fitness = ?
-0.428

Entry W45P : reported abundance fitness = ?
-0.086

Entry C50F : reported abundance fitness = ?
-0.654

Entry C21A : reported abundance fitness = ?
-0.563

Entry C24W : reported abundance fitness = ?
-0.736

Entry P35M : reported abundance fitness = ?
0.121

Entry H29S : reported abundance fitness = ?
-0.882

Entry G43Q : reported abundance fitness = ?
-0.074

Entry L20F : reported abundance fitness = ?
0.078

Entry P41M : reported abundance fitness = ?
-0.124

Entry A40W : reported abundance fitness = ?
-0.404

Entry R26D : reported abundance fitness = ?
-0.296

Entry C47E : reported abundance fitness = ?
-0.9

Entry L33C : reported abundance fitness = ?
-0.272

Entry G43P : reported abundance fitness = ?
0.032

Entry P25V : reported abundance fitness = ?
-0.124

Entry V31K : reported abundance fitness = ?
-0.314

Entry E17F : reported abundance fitness = ?
-0.213

Entry S46P : reported abundance fitness = ?
-0.109

Entry H49E : reported abundance fitness = ?
-0.225

Entry A27L : reported abundance fitness = ?
-0.204

Entry A27V : reported abundance fitness = ?
-0.211

Entry L37W : reported abundance fitness = ?
-0.496

Entry Y28V : reported abundance fitness = ?
0.054

Entry C24Q : reported abundance fitness = ?
-0.879

Entry I18S : reported abundance fitness = ?
0.065

Entry C50Q : reported abundance fitness = ?
-0.365

Entry C24R : reported abundance fitness = ?
-0.804

Entry L30W : reported abundance fitness = ?
-0.036

Entry E36F : reported abundance fitness = ?
-0.237

Entry K39C : reported abundance fitness = ?
-0.358

Entry P48V : reported abundance fitness = ?
-0.04

Entry P41W : reported abundance fitness = ?
-0.323

Entry C47Q : reported abundance fitness = ?
-0.918

Entry E36L : reported abundance fitness = ?
-0.093
